# reported hPTHR-2 EC50 (nM), luciferase reporter gene assay; entries follow
assay.system: human parathyroid hormone receptor 2 (human, UniProt P49190)
experiment.notes: cell-based or functional assay
Non-standard residues stand in square brackets, D forms with d. No end group written: not given here. 1Nal = N[C@@H](Cc1cccc2ccccc12)C(=O)O; β3hI = CC[C@H](C)[C@H](N)CC(=O)O; β3hR = N=C(N)NCCC[C@H](N)CC(=O)O; β3hF = N[C@H](CC(=O)O)Cc1ccccc1; Nle = CCCC[C@H](N)C(=O)O; Aib = CC(C)(N)C(=O)O

Solved entries:
[Aib]VSEIQL[Nle]HELGKHLKS[β3hI]ERVE[1Nal]LRKLLQEVHEK-NH2 [[Aib^1, Nle^8, Glu^10, Lys^16, β-hIle^18, 1-Nal^23, Leu^27, Glu^30, Glu^33, Lys^34] hPTH(1-34)-NH2]    1 nM
SVSEIQL[Nle]HSLGKHLNS[β3hI]ERVE[1Nal]LRKLLQDVHNF-NH2 [[Nle^8, Ser^10, β-hIle^18, 1-Nal^23, Leu^27] hPTH (1-34)-NH2]    17 nM
[Aib]VSEIQL[Nle]HNLGKHLNS[β3hR]ERVE[1Nal]LRKLLQDVHNF-NH2 [[Aib^1, Nle^8, β-hArg^18, 1-Nal^23, Leu^27] hPTH (1-34)-NH2]    16 nM

In one line, give reported hPTHR-2 EC50 (nM), luciferase reporter gene assay of the entry SVSEIQL[Nle]HNLGKHLSS[β3hI]ERVE[1Nal]LRKLLQDVHNF-NH2 [[Nle^8, Ser^16, β-hIle^18, 1-Nal^23, Leu^27] hPTH (1-34)-NH2] .
20 nM

Give recorded hPTHR-2 EC50 (nM), luciferase reporter gene assay. SVSEIQL[Nle]HNLGKHLNS[β3hI]ERVE[1Nal]LRKLLQRVHNF-NH2 [[Nle^8, β-hIle^18, 1-Nal^23, Leu^27, Arg^30] hPTH (1-34)-NH2]
7 nM

Respond only with hPTHR-2 EC50 (nM), luciferase reporter gene assay recorded for SVSEIQL[Nle]HNLGKHLNS[β3hF]ERVE[1Nal]LRKLLQDVHNF-NH2 [[Nle^8, β-hPhe^18, 1-Nal^23, Leu^27] hPTH (1-34)-NH2]
10 nM
